Tgt: Fuc(a1-2)Gal6S(b1-4)Glc
Test Summary: glycan array binding signal (z-score within array); higher = stronger binding
Measurement Context: glycan notation: IUPAC condensed, linker removed
This excerpt belongs to a sample that is enriched for the strongest signals.
# reported glycan array binding signal (z-score); entries follow
Answer with a bare number; do not write a unit.

Solved entries (count: 4):
Binder: XTP3-B-MRH2 (Homo sapiens), Q96DZ1 (protein) EFLSGSYCFRGGVGWWKYEFCYGKHVHQYHEDKDSGKTSVVVGTWNQEEHIEWAKKNTARAYHLQDDGTQTVRMVSHFYGNGDICDITDKPRQVTVKLKCKESDSPHAVTVYMLEPHSCQYILGVESPVICKILDTA
glycan array binding signal (z-score): 0.258
--
Binder: Si Bti9 1b-HA (Solanum lycopersicum) (protein) MFESRPRSVLSLGVFVILVYLSSVPLPVNSQCNRGCDLALASFYVWRGSNLTLISEMFSTSIADIVSYNNRDNIPNQDSVIAGTRINIPFRCDCLNDGEVLGHAFPYRVKSGDTYDLVARNYSDLTTAQWMMKFNSYPENNIPNTVNLSVVVNCSCGNSDVSKDFGLFVTYPVRAEDNLTSVASAANVSEDIIRRYNPAAVSILDIGQGIIYIPGRDRNGNFPPLPTSTDGLSGGAKAPLFFNPAFLYKVVELKLAGRSRTSGYPYDVPDYAGYPYDVPDYALEVLFQ
glycan array binding signal (z-score): -0.028
--
Binder: EULS2 M1 (Oryza sativa) (protein) MVYCRANPNYAMTARNGAVVLAPANPKDEYQHWIKDMRWSTSIKDEEGYPAFALVNKATGQAIKHSLGQSHPVRLVPYNPEVMDESVLWTESRDVGNGFRCIRMVNNIYLNFDAFHGDKYHGGVRDGTDIVLWKLCEGDNQRWKIQPYYILEQKLISEEDLNSAVDHHHHHH
glycan array binding signal (z-score): -1.48
--
Binder: CD34 (Homo sapiens), P28906 (protein) MGSSHHHHHHSSGLVPRGSHMSTSLATSPTKPYTSSSPILSDIKAEIKCSGIREVKLTQGICLEQNKTSSCAEFKKDRGEGLARVLCGEEQADADAGAQVCSLLLAQSEVRPQCLLLVLANRTEISSKLQLMKKHQSDLKKLGILDFTEQDVASHQSYSQKT
glycan array binding signal (z-score): 0.088

Here is another binder to look at.
Inquiry: Bench note: what glycan array binding signal (z-score) did ArathEULS3 TAP (Arabidopsis thaliana) (protein) IDENLYFQGGSMDEKTTGWRGGHVVEGLAGELEQLRARLEHHPQGQREPGGGGSLEITSLYKKAGFMEHHHQHHRHHQRDDGEDDRQSFGVPPPHVDAPPQPHGLYQSQPHFDPYAPTPQAPAPYRSETQFEPHAPPPYRSEPYFETPAPPPSFGHVSHVGHQSPNESYPPEHHRYGGYQQPSNSLLESHGDHSGVTHVAHHSSNQPQSSSGVYHKPDENRLPDNLAGLAGRATVKVYSKAEPNYNLTIRDGKVILAPADPSDEAQHWYKDEKYSTKVKDADGHPCFALVNKATGEAMKHSVGATHPVHLIRYVPDKLDESVLWTESKDFGDGYRTIRMVNNTRLNVDAYHGDSKSGGVRDGTTIVLWDWNKGDNQLWKIFPF show?
Reply text: 1.85
